The reported measurements were obtained from patent US7767659B2.

The following compounds are listed with their measured GI50 values.
System: SK-MEL-28
assay-summary: Inhibition of cells growth by colorimetric assay (SRB)
condition-summary: Homo sapiens, SK-MEL-28, 48 h, read-out: GI50 MEL-28
Write it as a number; the unit nM goes unstated.

Below are worked cases with known answers.
COC1=C(C)C(=O)C2=C(C1=O)[C@@H]1C3[C@@H]4SC[C@]5(NCCc6c5[nH]c5ccccc65)C(=O)OC[C@@H](c5c6c(c(C)c(OC(C)=O)c54)OCO6)N3[C@@H](C#N)[C@H](C2)N1C (stereo partly shown) ... 247
C=CCN1[C@@H]2c3c(cc(C)c(OC)c3O)C[C@H]1[C@H](C#N)N1C2[C@@H]2SCC(NC(=O)CCCCCCCCCCCCCCC)C(=O)OC[C@H]1c1c3c(c(C)c(OC(C)=O)c12)OCO3 (stereo partly shown) ... 11600
CCCCCCCCCCCCCCCC(=O)NC1CS[C@@H]2c3c(OC(C)=O)c(C)c4c(c3[C@H](COC1=O)N1C2[C@@H]2N[C@@H](Cc3cc(C)c(OC)c(O)c32)[C@@H]1C#N)OCO4 (stereo partly shown) ... 2410
COc1c(C)cc2c(c1O)[C@@H]1C3[C@@H]4SC[C@]5(NCCc6c5[nH]c5ccccc65)C(=O)OC[C@@H](c5c6c(c(C)c(OC(C)=O)c54)OCO6)N3[C@@H](C#N)[C@H](C2)N1C (stereo partly shown) ... 30.2
C=CCN1[C@@H]2c3c(cc(C)c(OC)c3O)C[C@H]1[C@H](C#N)N1C2[C@@H]2SCC(NC(=O)C(F)(F)F)C(=O)OC[C@H]1c1c3c(c(C)c(OC(C)=O)c12)OCO3 (stereo partly shown) ... 632

Record for CCC(=O)NC1CS[C@@H]2c3c(OC(C)=O)c(C)c4c(c3[C@H](COC1=O)N1C2[C@@H]2N[C@@H](Cc3cc(C)c(OC)c(O)c32)[C@@H]1C#N)OCO4 (stereo partly shown) under target or system SK-MEL-28: GI50 reported as 12.8

Record for COc1c(C)cc2c(c1OC(=O)/C=C/c1ccccc1)[C@H]1N[C@@H](C2)[C@H](C#N)N2C1[C@@H]1SCC(NC(=O)C(F)(F)F)C(=O)OC[C@H]2c2c3c(c(C)c(OC(C)=O)c21)OCO3 (stereo partly shown) under target or system SK-MEL-28: GI50 reported as 32.7

Record for C=CCOc1c(C)c2c(c3c1CC1[C@H]4c5c(cc(C)c(OC)c5O)C[C@@H]([C@H](C#N)N1[C@H]3CN)N4C)OCO2 (stereo partly shown) under target or system SK-MEL-28: GI50 reported as 561

Record for COc1c(C)cc2c(c1O)[C@H]1N[C@@H](C2)[C@H](C#N)N2C1[C@@H]1SCC(NC(C)=O)C(=O)OC[C@H]2c2c3c(c(C)c(OC(C)=O)c21)OCO3 (stereo partly shown) under target or system SK-MEL-28: GI50 reported as 1.09

Record for CCCCCCCCCCCCCCCC(=O)NC1CS[C@@H]2c3c(OC(C)=O)c(C)c4c(c3[C@H](COC1=O)N1C2[C@@H]2N[C@@H](Cc3cc(C)c(OC)c(O)c32)[C@@H]1O)OCO4 (stereo partly shown) under target or system SK-MEL-28: GI50 reported as 272

###

Test system: HeLa-APL
assay-summary: Inhibition of cells growth by colorimetric assay (SRB)
condition-summary: Homo sapiens, 48 h, read-out: GI50 HELA-APL
Protocol: This form of the assay employs 96 well cell culture microplates of 9 mm diameter (Faircloth, 1988; Mosmann, 1983). Most of the cell lines are obtained from American Type Culture Collection (ATCC) derived from different human cancer types. […] The values for mean +/− SD of data from triplicate wells are calculated. Some parameters for cellular responses can be calculated: GI=growth inhibition, TGI=total growth inhibition (cytostatic effect) and LC=cell killing (cytotoxic effect).
measured-metric: GI50 (nM)
Write it as a number; the unit nM goes unstated.

Below are worked cases with known answers.
COc1c(C)cc2c(c1O)[C@H]1N[C@@H](C2)[C@H](C#N)N2C1[C@@H]1SCC(NC(C)=O)C(=O)OC[C@H]2c2c3c(c(C)c(OC(C)=O)c21)OCO3 (stereo partly drawn) ... 1.86
COC1=C(C)C(=O)C2=C(C1=O)[C@@H]1C3[C@@H]4SC[C@]5(NCCc6c5[nH]c5ccccc65)C(=O)OC[C@@H](c5c6c(c(C)c(OC(C)=O)c54)OCO6)N3[C@@H](C#N)[C@H](C2)N1C (stereo partly drawn) ... 35.6
C=CCN1[C@@H]2c3c(cc(C)c(OC)c3O)C[C@H]1[C@H](C#N)N1C2[C@@H]2SC[C@H](NC(=O)c3cc4ccccc4oc3=O)C(=O)OC[C@H]1c1c3c(c(C)c(OC(C)=O)c12)OCO3 (stereo partly drawn) ... 55.9
COc1c(C)cc2c(c1O)[C@H]1N[C@@H](C2)[C@H](C#N)N2C1[C@@H]1SCC(NC(=O)C(F)(F)F)C(=O)OC[C@H]2c2c3c(c(C)c(OC(C)=O)c21)OCO3 (stereo partly drawn) ... 0.576

Lab note: measured GI50 of CCCCCCCCCCCCCCCC(=O)NC1CS[C@@H]2c3c(OC(C)=O)c(C)c4c(c3[C@H](COC1=O)N1C2[C@@H]2N[C@@H](Cc3cc(C)c(OC)c(O)c32)[C@@H]1C#N)OCO4 (stereo partly drawn) was 33.9

Lab note: measured GI50 of C=CCOc1c(C)c2c(c3c1CC1[C@H]4c5c(cc(C)c(OC)c5O)C[C@@H]([C@H](C#N)N1[C@H]3CN)N4C)OCO2 (stereo partly drawn) was 717

###

Test system: LNCaP
assay-summary: Inhibition of cells growth by colorimetric assay (SRB)
condition-summary: Homo sapiens, LNCaP, 48 h, read-out: LNCAP GI50
The following molecules are listed with their measured GI50 values.
Write it as a number; the unit nM goes unstated.

COc1cc2c(cc1O)CCN[C@]21CS[C@@H]2c3c(O)c(C)c4c(c3[C@H](COC1=O)N1C2[C@@H]2N[C@@H](Cc3cc(C)c(OC)c(O)c32)[C@@H]1O)OCO4 (stereo partly drawn) ... 1.59
COc1cc2c(cc1O)CCN[C@]21CS[C@@H]2c3c(OC(=O)/C=C/c4ccccc4)c(C)c4c(c3[C@H](COC1=O)N1C2[C@@H]2N[C@@H](Cc3cc(C)c(OC)c(O)c32)[C@@H]1O)OCO4 (stereo partly drawn) ... 1.87

Next:
Lab note: measured GI50 of C=CCN1[C@@H]2c3c(cc(C)c(OC)c3O)C[C@H]1[C@H](C#N)N1C2[C@@H]2SC[C@]3(NCCc4cc(OC(=O)OC(C)(C)C)c(OC)cc43)C(=O)OC[C@H]1c1c3c(c(C)c(O)c12)OCO3 (stereo partly drawn) was 14.7

###

Tested on: PANC-1
assay-summary: Inhibition of cells growth by colorimetric assay (SRB)
condition-summary: Homo sapiens, PANC-1, 48 h, read-out: PANC-1 TGI
Protocol: This form of the assay employs 96 well cell culture microplates of 9 mm diameter (Faircloth, 1988; Mosmann, 1983). Most of the cell lines are obtained from American Type Culture Collection (ATCC) derived from different human cancer types. […] The values for mean +/− SD of data from triplicate wells are calculated. Some parameters for cellular responses can be calculated: GI=growth inhibition, TGI=total growth inhibition (cytostatic effect) and LC=cell killing (cytotoxic effect).
measured-metric: IC (TGI) (nM)
Write it as a number; the unit nM goes unstated.

Below are worked cases with known answers.
COc1ccc2[nH]c3c(c2c1)CCN[C@]31CS[C@@H]2c3c(OC(C)=O)c(C)c4c(c3[C@H](COC1=O)N1C2[C@@H]2N[C@@H](Cc3cc(C)c(OC)c(O)c32)[C@@H]1O)OCO4 (stereo partly drawn) ... 10.9
COC1=C(C)C(=O)C2=C(C1=O)C1C3[C@@H]4SCC(=O)C(=O)OC[C@@H](c5c6c(c(C)c(OC(C)=O)c54)OCO6)N3[C@@H](O)[C@H](C2)N1C (stereo partly drawn) ... 4860

Next:
Lab note: measured IC (TGI) of COc1c(C)cc2c(c1O)[C@H]1N[C@@H](C2)[C@H](O)N2C1[C@@H]1SC[C@]3(NCCc4c3[nH]c3ccc(O)cc43)C(=O)OC[C@H]2c2c3c(c(C)c(OC(C)=O)c21)OCO3 (stereo partly drawn) was 12.3

###

Test system: A-549
assay-summary: cells
condition-summary: Homo sapiens, A549, 48 h, read-out: A549 LC50
measured-metric: log10 CC50 (log10 of the value in nM)
Please interpret these as log10 of CC50 where CC50 is in nM.

C=CCN1[C@@H]2c3c(cc(C)c(OC)c3O)C[C@H]1[C@H](C#N)N1C2[C@@H]2SC[C@]3(NCCc4cc(O)c(OC)cc43)C(=O)OC[C@H]1c1c3c(c(C)c(OC(=O)/C=C/c4ccccc4)c12)OCO3 (stereo partly shown) ... 3.00

Lab note: measured log10 CC50 of COc1cc2c(cc1O)CCN[C@]21CS[C@@H]2c3c(OC(C)=O)c(C)c4c(c3[C@H](COC1=O)N1C[C@@H]3Cc5cc(C)c(OC)c(O)c5C(C21)N3C)OCO4 (stereo partly shown) was 4.13

Lab note: measured log10 CC50 of C=CCN1[C@@H]2c3c(cc(C)c(OC)c3O)C[C@H]1[C@H](C#N)N1C2[C@@H]2SC[C@]3(NCCc4cc(O)c(OC)cc43)C(=O)OC[C@H]1c1c3c(c(C)c(OC(=O)CCCCCCC)c12)OCO3 (stereo partly shown) was 4.05
